# test_system: human TLR9 (Homo sapiens)
# Sequence (Q9NR96 26-1032): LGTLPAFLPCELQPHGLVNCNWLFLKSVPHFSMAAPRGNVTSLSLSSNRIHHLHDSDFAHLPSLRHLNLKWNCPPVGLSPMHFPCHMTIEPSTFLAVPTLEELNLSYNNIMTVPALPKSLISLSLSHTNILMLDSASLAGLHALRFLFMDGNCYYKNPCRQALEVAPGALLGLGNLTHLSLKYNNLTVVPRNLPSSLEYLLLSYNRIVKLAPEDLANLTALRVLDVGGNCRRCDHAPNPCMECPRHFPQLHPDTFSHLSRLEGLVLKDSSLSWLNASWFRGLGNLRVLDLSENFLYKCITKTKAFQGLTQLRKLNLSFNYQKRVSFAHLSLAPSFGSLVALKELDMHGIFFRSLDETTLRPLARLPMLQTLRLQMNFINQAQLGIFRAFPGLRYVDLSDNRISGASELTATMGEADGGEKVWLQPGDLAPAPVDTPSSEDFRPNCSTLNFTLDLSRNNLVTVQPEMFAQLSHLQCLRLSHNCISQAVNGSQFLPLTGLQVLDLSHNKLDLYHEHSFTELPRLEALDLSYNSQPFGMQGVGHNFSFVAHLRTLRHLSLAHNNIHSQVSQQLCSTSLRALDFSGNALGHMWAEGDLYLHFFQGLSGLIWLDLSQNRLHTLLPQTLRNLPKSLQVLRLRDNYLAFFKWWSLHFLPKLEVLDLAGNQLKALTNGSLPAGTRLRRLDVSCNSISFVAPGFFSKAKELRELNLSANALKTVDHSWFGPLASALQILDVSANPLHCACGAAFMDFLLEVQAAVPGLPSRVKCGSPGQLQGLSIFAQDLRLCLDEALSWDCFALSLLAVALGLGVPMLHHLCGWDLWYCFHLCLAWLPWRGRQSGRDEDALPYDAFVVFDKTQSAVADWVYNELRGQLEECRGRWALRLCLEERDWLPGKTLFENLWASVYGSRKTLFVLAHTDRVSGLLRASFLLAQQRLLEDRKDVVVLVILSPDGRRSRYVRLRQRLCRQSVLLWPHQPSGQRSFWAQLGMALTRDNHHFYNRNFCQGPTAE
# assay_summary: TLR9 inhibition reporter assay (HEK-Blue cells, SEAP reporter, ODN2006 stimulation)
# condition: HEK-Blue cells overexpressing human TLR9, SEAP reporter, ODN2006 5 nM
pIC50: −log10 of the molar value.
pIC50 values, listed per item
property: pIC50

{"columns": ["compound", "test_system", "value_prefix", "assay_value"],
 "data": [
  ["Cc1cc(-c2[nH]c3ccc(C4CN(C)CCO4)cc3c2C(C)C)cn2ncnc12 (stereo not drawn) [Example 296]", "human TLR9 (Homo sapiens)", "=", 5.08],
  ["Cc1cc(-c2[nH]c3ccc(C4CCC(C(=O)N5CCN(C)CC5)CC4)cc3c2C(C)C)cn2ncnc12 (single isomer, unassigned) [Example 157]", "human TLR9 (Homo sapiens)", "=", 5.20],
  ["CNC(=O)CN1CC(c2ccc3[nH]c(-c4cc(C)c5ncnn5c4)c(C(C)C)c3c2)C1 [Example 260]", "human TLR9 (Homo sapiens)", "=", 5.28],
  ["COc1cc(-c2[nH]c3ccc(C4CN(C(=O)CNC5(C)COC5)CCO4)cc3c2C(C)C)cn2ncnc12 (stereo not drawn) [Example 361]", "human TLR9 (Homo sapiens)", "=", 5.27],
  ["Cc1cc(-c2[nH]c3ccc(C4CN(C)CCO4)cc3c2C(C)C)cn2ncnc12 (stereo not drawn) [Example 293]", "human TLR9 (Homo sapiens)", "=", 5.00],
  ["COc1cc(-c2[nH]c3ccc(C4CCC(N(C)CCC(F)(F)F)CC4)cc3c2C(C)C)cn2ncnc12 (stereo not drawn) [Example 82]", "human TLR9 (Homo sapiens)", "=", 5.24],
  ["Cc1cc(-c2[nH]c3ccc(C4CN(C(C)C)CCO4)cc3c2C(C)C)cc(C)n1 (stereo not drawn) [Example 303]", "human TLR9 (Homo sapiens)", "=", 6.16],
  ["Cc1c(-c2[nH]c3ccc(C4CN(C5COC5)C4)cc3c2C(C)C)cn2cnnc2c1C [Example 540]", "human TLR9 (Homo sapiens)", "=", 4.73],
  ["Cc1c(-c2[nH]c3ccc(C4CN(C(=O)CN(C)C)CCO4)cc3c2C(C)C)cn2ncnc2c1C (stereo not drawn) [Example 329]", "human TLR9 (Homo sapiens)", "=", 5.38],
  ["COc1ccc(CNC2CCC(c3ccc4[nH]c(-c5cc(C)nc(C)c5)c(C(C)C)c4c3)CC2)cc1 (single isomer, unassigned) [Example 49]", "human TLR9 (Homo sapiens)", "=", 6.41],
  ["Cc1c(-c2[nH]c3ccc(C4CCC(NC5(C)COC5)CC4)cc3c2C(C)C)cn2ncnc2c1C (stereo not drawn) [Example 48]", "human TLR9 (Homo sapiens)", "=", 5.73],
  ["Cc1cc(-c2[nH]c3ccc(C4CN(CCS(C)(=O)=O)CCO4)cc3c2C(C)C)cn2ncnc12 (stereo not drawn) [Example 343]", "human TLR9 (Homo sapiens)", "<", 4.30],
  ["CNCC(=O)N1CC(c2ccc3[nH]c(-c4cc(OC)c5ncnn5c4)c(C(C)C)c3c2)C1 [Example 268]", "human TLR9 (Homo sapiens)", "=", 6.40],
  ["CCN(C)C1CCC(c2ccc3[nH]c(-c4cc(C)c5ncnn5c4)c(C(C)C)c3c2)CC1 (stereo not drawn) [Example 62]", "human TLR9 (Homo sapiens)", "=", 5.74],
  ["COc1cc(-c2[nH]c3ccc(C4CCC(N5CCOCC5)CC4)cc3c2C(C)C)cn2ncnc12 (stereo not drawn) [Example 76]", "human TLR9 (Homo sapiens)", "=", 5.65]
]}
